Each entry below carries its recorded log10 MIC.
Tested on: Pseudomonas aeruginosa
procedure_summary: Antibacterial activity against Pseudomonas aeruginosa after 24 hrs micro dilution assay
Format: functional
condition_label: Pseudomonas aeruginosa, 24 h; read-out: MIC
Plainly stated, the numbers are log10 of MIC given in µg/mL.

These recorded examples may help you get a feel for the data.
[[record]]
molecule = "Cc1cccc(CNC2CCCCC2NCc2cccc(C)c2)c1.Cl (stereo not given)"
measured_on = "Pseudomonas aeruginosa"
result = -1.19

[[record]]
molecule = "CC(C)(C)c1ccc(CNC2CCCCC2NCc2ccc(C(C)(C)C)cc2)cc1.Cl (stereo not given)"
measured_on = "Pseudomonas aeruginosa"
result = -3.22

[[record]]
molecule = "Brc1ccc(CNC2CCCCC2NCc2ccc(Br)cc2)cc1.Cl (stereo not given)"
measured_on = "Pseudomonas aeruginosa"
result = -1.49

[[record]]
molecule = "Cl.Clc1cccc(CN[C@H]2CCCC[C@@H]2NCc2cccc(Cl)c2)c1 (racemic)"
measured_on = "Pseudomonas aeruginosa"
result = -1.19

[[record]]
molecule = "Cl.Clc1ccc(CNC2CCCCC2NCc2ccc(Cl)cc2)cc1 (stereo not given)"
measured_on = "Pseudomonas aeruginosa"
result = -2.10


Turning now to a further record.
For this molecule ( Cl.Clc1ccc(CNC2CCCCC2NCc2ccc(Cl)cc2Cl)c(Cl)c1 (racemic) ), measured log10 MIC is -1.80

---

System: Staphylococcus epidermidis
procedure_summary: Antibacterial activity against Staphylococcus epidermidis after 24 hrs micro dilution assay
Type: functional
condition_label: Staphylococcus epidermidis, 24 h; read-out: MIC
// NB: equality with 0.07 µg/mL counts as No; only MIC strictly below is Yes

Recorded results for 5 molecules are shown here.
[[record]]
molecule = "CCc1ccc(CNC2CCCCC2NCc2ccc(CC)cc2)cc1.Cl (stereo not given)"
class_label = "Yes"

[[record]]
molecule = "Cl.FC(F)(F)c1cccc(CN[C@H]2CCCC[C@@H]2NCc2cccc(C(F)(F)F)c2)c1"
class_label = "Yes"

[[record]]
molecule = "Brc1ccc(CNC2CCCCC2NCc2ccc(Br)cc2)cc1.Cl (stereo not given)"
class_label = "Yes"

[[record]]
molecule = "Cl.O=[N+]([O-])c1cccc(CNC2CCCCC2NCc2cccc([N+](=O)[O-])c2)c1 (stereo not given)"
class_label = "No"

[[record]]
molecule = "Cl.FC(F)(F)c1ccccc1CNC1CCCCC1NCc1ccccc1C(F)(F)F (stereo not given)"
class_label = "Yes"


In: MIC strictly < 0.07 µg/mL for this molecule? Cc1ccc(CNC2CCCCC2NCc2ccc(C)cc2)cc1.Cl (stereo not given)
Out: No

In: MIC strictly < 0.07 µg/mL for this molecule? CC(C)c1ccc(CNC2CCCCC2NCc2ccc(C(C)C)cc2)cc1.Cl (stereo not given)
Out: Yes

In: MIC strictly < 0.07 µg/mL for this molecule? `CN(C)[C@@H]1C(O)=C(C(N)=O)C(=O)[C@@]2(O)C(O)=C3C(=O)c4c(O)cccc4[C@@](C)(O)[C@H]3C[C@@H]12`
Out: Yes

In: MIC strictly < 0.07 µg/mL for this molecule? Cl.Clc1ccc(CNC2CCCCC2NCc2ccc(Cl)cc2Cl)c(Cl)c1 (racemic)
Out: Yes

In: MIC strictly < 0.07 µg/mL for this molecule? Brc1cccc(CNC2CCCCC2NCc2cccc(Br)c2)c1.Cl (stereo not given)
Out: Yes

---

procedure_summary: Toxicity in human RBC assessed as hemolysis at 1024 ug/ml
Type: cell-based, Erythrocyte
condition_label: erythrocyte
observable: Activity

These recorded examples may help you get a feel for the data.
[[record]]
compound = "Cl.FC(F)(F)c1ccc(C(F)(F)F)c(CNC2CCCCC2NCc2cc(C(F)(F)F)ccc2C(F)(F)F)c1 (stereo not given)"
observable = "Activity"
result = "Non-toxic"

[[record]]
compound = "Cl.FC(F)(F)c1ccc(CNC2CCCCC2NCc2ccc(C(F)(F)F)cc2C(F)(F)F)c(C(F)(F)F)c1 (stereo not given)"
observable = "Activity"
result = "Non-toxic"

[[record]]
compound = "Cc1ccccc1CNC1CCCCC1NCc1ccccc1C.Cl (stereo not given)"
observable = "Activity"
result = "Non-toxic"

[[record]]
compound = "Cl.FC(F)(F)c1ccc(CN[C@H]2CCCC[C@@H]2NCc2ccc(C(F)(F)F)cc2)cc1"
observable = "Activity"
result = "Non-toxic"


For this compound ( Brc1cccc(CNC2CCCCC2NCc2cccc(Br)c2)c1.Cl (stereo not given) ), measured Activity is Non-toxic

---

System: Pseudomonas aeruginosa
procedure_summary: Antibacterial activity against Pseudomonas aeruginosa after 24 hrs micro dilution assay
Assay type: functional
condition_label: Pseudomonas aeruginosa, 24 h; read-out: MIC
// NB: equality with 0.03 µg/mL counts as 0 (no); only MIC strictly below is 1 (yes)

Recorded results for 10 compounds are shown here.
[[record]]
compound = "Cl.FC(F)(F)c1ccc(CN[C@H]2CCCC[C@@H]2NCc2ccc(C(F)(F)F)cc2)cc1"
class_label = "1 (yes)"

[[record]]
compound = "Cl.Clc1cccc(CNC2CCCCC2NCc2cccc(Cl)c2)c1 (stereo not drawn)"
class_label = "1 (yes)"

[[record]]
compound = "Cl.FC(F)(F)c1cccc(CN[C@H]2CCCC[C@@H]2NCc2cccc(C(F)(F)F)c2)c1"
class_label = "1 (yes)"

[[record]]
compound = "CCCCc1ccc(CNC2CCCCC2NCc2ccc(CCCC)cc2)cc1.Cl (stereo not drawn)"
class_label = "1 (yes)"

[[record]]
compound = "Cl.Fc1cccc(CNC2CCCCC2NCc2cccc(F)c2)c1 (stereo not drawn)"
class_label = "0 (no)"

[[record]]
compound = "Cl.FC(F)(F)c1ccccc1CNC1CCCCC1NCc1ccccc1C(F)(F)F (stereo not drawn)"
class_label = "0 (no)"

[[record]]
compound = "Cl.FC(F)(F)c1ccc(CNC2CCCCC2NCc2ccc(C(F)(F)F)cc2)cc1 (stereo not drawn)"
class_label = "1 (yes)"

[[record]]
compound = "Cl.Clc1ccc(CN[C@H]2CCCC[C@@H]2NCc2ccc(Cl)cc2)cc1"
class_label = "0 (no)"

[[record]]
compound = "Cc1ccc(CNC2CCCCC2NCc2ccc(C)cc2)cc1.Cl (stereo not drawn)"
class_label = "0 (no)"

[[record]]
compound = "CCc1ccc(CNC2CCCCC2NCc2ccc(CC)cc2)cc1.Cl (stereo not drawn)"
class_label = "1 (yes)"


In: MIC strictly < 0.03 µg/mL for this compound? Cc1ccccc1CNC1CCCCC1NCc1ccccc1C.Cl (stereo not drawn)
Out: 0 (no)

In: MIC strictly < 0.03 µg/mL for this compound? Cl.O=[N+]([O-])c1ccc(CNC2CCCCC2NCc2ccc([N+](=O)[O-])cc2)cc1 (stereo not drawn)
Out: 0 (no)

In: MIC strictly < 0.03 µg/mL for this compound? Brc1cccc(CNC2CCCCC2NCc2cccc(Br)c2)c1.Cl (stereo not drawn)
Out: 0 (no)

---

procedure_summary: Toxicity in human RBC assessed as hemolysis at 1024 ug/ml
Format: cell-based, Erythrocyte
condition_label: red blood cells, read-out: Activity
Each entry below carries its recorded hemolysis at 1024 ug/ml.
Report as a plain number; the unit % is understood.

For this compound ( CCCCc1ccc(CNC2CCCCC2NCc2ccc(CCCC)cc2)cc1.Cl (centres undefined) ), measured hemolysis at 1024 ug/ml is 7.68

For this compound ( Cc1cccc(CNC2CCCCC2NCc2cccc(C)c2)c1.Cl (centres undefined) ), measured hemolysis at 1024 ug/ml is 4.78

For this compound ( `Cl.Clc1ccc(CN[C@H]2CCCC[C@@H]2NCc2ccc(Cl)cc2)cc1` ), measured hemolysis at 1024 ug/ml is 4.8

For this compound ( CCc1ccc(CNC2CCCCC2NCc2ccc(CC)cc2)cc1.Cl (centres undefined) ), measured hemolysis at 1024 ug/ml is 38.3

For this compound ( CC(C)c1ccc(CNC2CCCCC2NCc2ccc(C(C)C)cc2)cc1.Cl (centres undefined) ), measured hemolysis at 1024 ug/ml is 81.8

For this compound ( Clc1ccccc1CNC1CCCCC1NCc1ccccc1Cl (centres undefined) ), measured hemolysis at 1024 ug/ml is 9.83

For this compound ( Cc1ccc(CNC2CCCCC2NCc2ccc(C)cc2)cc1.Cl (centres undefined) ), measured hemolysis at 1024 ug/ml is 19.2

For this compound ( `Cl.FC(F)(F)c1cccc(CN[C@H]2CCCC[C@@H]2NCc2cccc(C(F)(F)F)c2)c1` ), measured hemolysis at 1024 ug/ml is 3.7

For this compound ( Cl.Clc1cccc(CNC2CCCCC2NCc2cccc(Cl)c2)c1 (centres undefined) ), measured hemolysis at 1024 ug/ml is 9.68

---

Test system: Staphylococcus epidermidis
procedure_summary: Antibacterial activity against Staphylococcus epidermidis after 24 hrs micro dilution assay
Type: functional
condition_label: Staphylococcus epidermidis, 24 h; read-out: MIC
observable: MIC (µg/mL)
Report as a plain number; the unit µg/mL is understood.

These recorded examples may help you get a feel for the data.
[[record]]
molecule = "Cl.Clc1cccc(CNC2CCCCC2NCc2cccc(Cl)c2)c1 (stereo unspecified)"
measured_on = "Staphylococcus epidermidis"
measure_unit = "µg/mL"
result = 0.032

[[record]]
molecule = "Cl.FC(F)(F)c1ccc(CNC2CCCCC2NCc2ccc(C(F)(F)F)cc2)cc1 (stereo unspecified)"
measured_on = "Staphylococcus epidermidis"
measure_unit = "µg/mL"
result = 0.032

[[record]]
molecule = "Cc1ccccc1CNC1CCCCC1NCc1ccccc1C.Cl (stereo unspecified)"
measured_on = "Staphylococcus epidermidis"
measure_unit = "µg/mL"
result = 0.25

[[record]]
molecule = "CC(C)(C)c1ccc(CNC2CCCCC2NCc2ccc(C(C)(C)C)cc2)cc1.Cl (stereo unspecified)"
measured_on = "Staphylococcus epidermidis"
measure_unit = "µg/mL"
result = 0.008

[[record]]
molecule = "CCCCc1ccc(CNC2CCCCC2NCc2ccc(CCCC)cc2)cc1.Cl (stereo unspecified)"
measured_on = "Staphylococcus epidermidis"
measure_unit = "µg/mL"
result = 0.008


Turning now to a further record.
For this molecule ( Cl.Clc1ccc(CNC2CCCCC2NCc2ccc(Cl)cc2)cc1 (stereo unspecified) ), measured MIC is 0.008
